- MEASUREMENT_TARGET: full-length H1 A/California/07/2009 HA expressed on 293T cells (influenza A virus A/California/07/2009 (H1N1))
- PROCEDURE_TEXT: cell-based or functional assay
MEASUREMENT_LABEL: IC50 of true virus neutralization H1N1 CA/09

BINDER: S45 (antibody, V domains shown) VH: EVQLVESGGGLVQPGGSLRLSCAASGFTINGSSIHWVRQAPGKGLEWVAYIGPFGGSTYYADSVKGRFTISADTSKNTAYLQMNSLRAEDTAVYYCARFWHGYNLYMDYWGQGTLVTVSS VL: DIQMTQSPSSLSASVGDRVTITCRASQDVGWWVAWYQQKPGKAPKLLIYGARFLYSGVPSRFSGSGSGTDFTLTISSLQPEDFATYYCQQYFNGPLTFGQGTKVEIKR
VAL: > 500 µg/mL

BINDER: P58 (antibody, V domains shown) VH: EVQLVESGGGLVQPGGSLRLSCAASGFTIGGGGIHWVRQAPGKGLEWVAWIWPYWGYTYYADSVKGRFTISADTSKNTAYLQMNSLRAEDTAVYYCARFNSYSYSGVMDYWGQGTLVTVSS VL: DIQMTQSPSSLSASVGDRVTITCRASQDVYSYVAWYQQKPGKAPKLLISSSRGLYSGVPSRFSGSGSGTDFTLTISSLQPEDFATYYCQQYSSFPITFGQGTKVEIKR
VAL: > 500 µg/mL

BINDER: P38 (antibody, V domains shown) VH: EVQLVESGGGLVQPGGSLRLSCAASGFTINDGGIHWVRQAPGKGLEWVAFIGPYGGSTFYADSVKGRFTISADTSKNTAYLQMNSLRAEDTAVYYCAGFIGDYSSYHGVMDYWGQGTLVTVSS VL: DIQMTQSPSSLSASVGDRVTITCRASQDVWGYVAWYQQKPGKAPKLLISWPGGLYSGVPSRFSGSGSGTDFTLTISSLQPEDFATYYCQQYSSFPLTFGQGTKVEIKR
VAL: > 500 µg/mL

BINDER: S10 (antibody, V domains shown) VH: EVQLVESGGGLVQPGGSLRLSCAASGFTIGGYGIHWVRQAPGKGLEWVASIGPSWGFTFYADSVKGRFTISADTSKNTAYLQMNSLRAEDTAVYYCARFNWVINGVTDYWGQGTLVTVSS VL: DIQMTQSPSSLSASVGDRVTITCRASQDVSYYVAWYQQKPGKAPKLLIFWSTFLYSGVPSRFSGSGSGTDFTLTISSLQPEDFATYYCQQYYDSPMTFGQGTKVEIKR
VAL: 1560 µg/mL

BINDER: S51 (antibody, V domains shown) VH: EVQLVESGGGLVQPGGSLRLSCAASGFTIDDWGIHWVRQAPGKGLEWVAWIWPYGGFTSYADSVKGRFTISADTSKNTAYLQMNSLRAEDTAVYYCARFGFVDWNLMDYWGQGTLVTVSS VL: DIQMTQSPSSLSASVGDRVTITCRASQDVWGYVAWYQQKPGKAPKLLISYTTYLYSGVPSRFSGSGSGTDFTLTISSLQPEDFATYYCQQYYNSPVTFGQGTKVEIKR
VAL: > 500 µg/mL

BINDER: P14 (antibody, V domains shown) VH: EVQLVESGGGLVQPGGSLRLSCAASGFTIGDFGIHWVRQAPGKGLEWVAGIWPFGGYTYYADSVKGRFTISADTSKNTAYLQMNSLRAEDTAVYYCARFVNWDGDYMDYWGQGTLVTVSS VL: DIQMTQSPSSLSASVGDRVTITCRASQDVGFYVAWYQQKPGKAPKLLISWSSYLYSGVPSRFSGSGSGTDFTLTISSLQPEDFATYYCQQYYNYPLTFGQGTKVEIKR
VAL: 4390 µg/mL

BINDER: P03 (antibody, V domains shown) VH: EVQLVESGGGLVQPGGSLRLSCAASGFTIDSFGIHWVRQAPGKGLEWVAFIGPFGGSTFYADSVKGRFTISADTSKNTAYLQMNSLRAEDTAVYYCARFDSNSYSYHGIMDYWGQGTLVTVSS VL: DIQMTQSPSSLSASVGDRVTITCRASQDVWGYVAWYQQKPGKAPKLLISWSGSLYSGVPSRFSGSGSGTDFTLTISSLQPEDFATYYCQQYYNWPVTFGQGTKVEIKR
VAL: > 500 µg/mL

BINDER: Do1 (antibody, V domains shown) VH: EVQLVESGGGLVQPGGSLRLSCAASGFTIDNGSIHWVRQAPGKGLEWVAWIGPYGGFTSYADSVKGRFTISADTSKNTAYLQMNSLRAEDTAVYYCARFYGSGSSSFMDYWGQGTLVTVSS VL: DIQMTQSPSSLSASVGDRVTITCRASQDVWGGVAWYQQKPGKAPKLLIFFSRYLYSGVPSRFSGSGSGTDFTLTISSLQPEDFATYYCQQYYNGPLTFGQGTKVEIKR
VAL: > 500 µg/mL

*Q* Entry S06 (antibody, V domains shown) VH: EVQLVESGGGLVQPGGSLRLSCAASGFTIGGGWIHWVRQAPGKGLEWVAFIGPYGGSTFYADSVKGRFTISADTSKNTAYLQMNSLRAEDTAVYYCARFNFGFWNHMDYWGQGTLVTVSS VL: DIQMTQSPSSLSASVGDRVTITCRASQDVSSWVAWYQQKPGKAPKLLIYGTTFLHSGVPSRFSGSGSGTDFTLTISSLQPEDFATYYCQQYYNGPLTFGQGTKVEIKR has what IC50 of true virus neutralization H1N1 CA/09?
*A* > 500 µg/mL

*Q* Here is the next binder: S07 (antibody, V domains shown) VH: EVQLVESGGGLVQPGGSLRLSCAASGFTINSSGIHWVRQAPGKGLEWVASIGPSWGSTYYADSVKGRFTISADTSKNTAYLQMNSLRAEDTAVYYCARFGIGDIDVMDYWGQGTLVTVSS VL: DIQMTQSPSSLSASVGDRVTITCRASQDVWGYVAWYQQKPGKAPKLLISYASFLYSGVPSRFSGSGSGTDFTLTISSLQPEDFATYYCQQYFNWPVTFGQGTKVEIKR
*A* > 500 µg/mL
